- method: NOMO-1 AML cell viability reduction, primary screen, STK33 inhibitor project, CellTiter-Glo luminescence (AID 2330)
- experimental conditions: NOMO-1 AML viability, 72 h, concentration not given here
Hit rate of the full screen: of about 37,000 compounds, about 2,800 (7.6%) were called active. Another 1% or so got no clear call; they are omitted. No stated cut-off is given here; in the data, active means inhibition above about 80%; inconclusive means no clear call, values can overlap the other calls; inactive means below that. Many of the other results were omitted from the sample, so actives are more common in it than they were.
Classes to choose from: 1 = active, -1 = inactive

molecule	class assignment
C[C@H](CO)N1C[C@H](C)[C@H](CN(C)Cc2ccc(Oc3ccccc3)cc2)Oc2c(NC(=O)CCCCCC(=O)Nc3ccccc3N)cccc2C1=O	1
CC(=O)Nc1ccc(Nc2c3c4c(cccc4[nH]c2=O)C(=O)c2ccccc2-3)cc1	1
COc1ccc(S(=O)(=O)Nc2ccc3c(c2)CC(=O)N([C@H](C)CO)C[C@H](C)[C@H](CN(C)Cc2ccc(C(F)(F)F)cc2)O3)cc1	1
C[C@@H]1CN([C@@H](C)CO)C(=O)c2cc(NS(=O)(=O)c3ccccc3)ccc2O[C@@H]1CN(C)Cc1ccc(C(=O)O)cc1	-1
CC(C)=CCCC1(C)C=Cc2c(ccc3c2[nH]c2cc(O)c(C)cc23)O1 (stereo unspecified)	1

Please look at the following molecule next.
Q) Lab log entry: "C[C@H]1CN([C@@H](C)CO)C(=O)Cc2cc(NS(=O)(=O)c3ccc(F)cc3)ccc2O[C@H]1CN(C)Cc1ccc(C(F)(F)F)cc1" — outcome as called in the assay?
A) -1

* * *

- method: NOMO-1 AML cell viability reduction, primary screen, STK33 inhibitor project, CellTiter-Glo luminescence (AID 2330)
- experimental conditions: NOMO-1 AML viability, 72 h, stronger effect = higher value, concentration not given here
The whole screen tested about 37,000 compounds, of which about 2,800 (7.6%) were called active. Not shown: some 1% with an inconclusive outcome. The entries come from a sample that favours actives as a whole.
metric name: inhibition (%)
Write the answer as a number in %, unit excluded.

Q) Given the entry "C[C@H](CO)N1C[C@H](C)[C@@H](CN(C)Cc2ccccc2)Oc2ccc(NC(=O)Nc3ccc4c(c3)OCO4)cc2C1=O" , report its measured inhibition.
A) 1.03

Q) Given the entry "C[C@@H]1CN([C@@H](C)CO)C(=O)c2cc(NC(=O)Nc3ccc4c(c3)OCO4)ccc2O[C@@H]1CN(C)Cc1ccc(Oc2ccccc2)cc1" , report its measured inhibition.
A) 66

Q) Given the entry "C[C@H](CO)N1C[C@H](C)[C@H](CN(C)Cc2ccc(C(F)(F)F)cc2)Oc2ccc(N(C)C)cc2CC1=O" , report its measured inhibition.
A) 14.9

Q) Given the entry COCc1nc2c([nH]1)C(c1ccccc1COc1ccc(Cl)cc1)C(C#N)=C(N)O2 (stereo not drawn) , report its measured inhibition.
A) 111

Q) Given the entry "CC[C@H]1CN2CCc3cc(OC)c(OC)cc3[C@@H]2C[C@@H]1C[C@H]1NCCc2cc(OC)c(OC)cc21" , report its measured inhibition.
A) 144

Q) Given the entry "CCCCCCc1ccc(O)cc1O" , report its measured inhibition.
A) 108

Q) Given the entry "C[C@H](CO)N1C[C@H](C)[C@@H](CN(C)Cc2ccc3c(c2)OCO3)Oc2c(cccc2N(C)C)C1=O" , report its measured inhibition.
A) 21.9

Q) Given the entry "COc1ccc(OC)c(NC(=O)c2cnn(-c3ccccc3Cl)c2NC(=O)c2ccco2)c1" , report its measured inhibition.
A) 21.2
